- Test system: SF-539 CNS
- assayInfo: NCI-60 one-dose screen, 48 h
- measurementParameters: 10 µM unless noted
- Experimental: Cells are grown in 96 well plates and exposed to the test compound for 48 hours. Compounds are tested at a single concentration, which is 10^-5 M for most compounds. The reported endpoint is percent growth (GI% or GIPRCNT), where numbers from 0 - 100% represent growth inhibition, and numbers from -100% - 0 represent cell death. For example, a value of 40 represents 60% growth inhibition. A value of 0 means no net growth occurred over the course of the experiment. […]
About 83,000 compounds went through this panel and 20% of them were active in at least one assay; those are over-represented in the sample as a whole. Calls of active or inactive are those of the source. Rule for the calls: active = growth percent below 10; inactive = the rest.
Outcome field: choose from class 1 = active, class 0 = inactive

q: Lab log entry: COc1ccc(C2CC(c3ccc(Nc4nc(NCCO)nc(N5CCOCC5)n4)cc3)=Nc3c(N)nc(N)nc3N2)cc1 (centres undefined) — outcome as called in the assay?
a: class 0

q: Lab log entry: `O=c1[nH]c2ccccc2cc1CSc1ccccc1Nc1nccc(-c2ccc(Cl)cc2)n1` — outcome as called in the assay?
a: class 0

q: Lab log entry: `CCN1CCN(Cc2cn(-c3ccc(S(N)(=O)=O)cc3)nn2)CC1` — outcome as called in the assay?
a: class 0

q: Lab log entry: CCO/C=N/C1=C(C#N)C(c2ccc(OC)cc2)c2sc3c(C)cccc3c2O1 (centres undefined) — outcome as called in the assay?
a: class 1

q: Lab log entry: `Nc1ccccc1NC(=O)c1ccc(NC(=O)C/C=C/c2cccnc2)cc1` — outcome as called in the assay?
a: class 1

q: Lab log entry: `O=S(=O)(Oc1ccc(-c2nnc(Nc3ccccc3)s2)cc1)C(F)(F)C(F)(F)C(F)(F)C(F)(F)C(F)(F)C(F)(F)F` — outcome as called in the assay?
a: class 0
